Target: human recombinant H-PGDS (Homo sapiens)
Sequence (O60760 whole entry): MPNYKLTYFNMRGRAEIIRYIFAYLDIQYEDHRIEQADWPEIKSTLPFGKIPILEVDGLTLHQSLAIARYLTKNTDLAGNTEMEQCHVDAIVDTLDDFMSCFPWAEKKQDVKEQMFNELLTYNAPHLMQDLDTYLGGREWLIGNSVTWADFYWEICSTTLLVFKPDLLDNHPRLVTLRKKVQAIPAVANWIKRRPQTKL
Test: Fluorescence intensity h-PGDS TBA enzyme assay (PGH2 depletion, MDA/TBA fluorescence)
Type: biochemical
Conditions: 1:175,000 human recombinant H-PGDS, 42 second reaction, 3-fold serial dilutions, highest concentration typically 1 μM
pIC50: −log10 of the molar value.
Result Type: pIC50

compound="COCC1(O)CCC(NC(=O)c2ccc(-c3cccc(F)c3)nc2)CC1 (stereo not drawn) [Example 235]" quantitative_readout=7.93

A: O=C(N[C@H]1CC[C@@H](O)C1)c1ccc(-c2cccc(F)c2)nc1 (relative stereo) [Example 158]
B: O=C(N[C@@H]1CCC[C@@H](C(=O)NCCCO)C1)c1ccc(-c2cccc(F)c2)nc1 (relative stereo) [Example 242]
C: O=C(N[C@H]1CCC[C@@H](NC(=O)N2CCOCC2)C1)c1ccc(-c2cccc(F)c2)nc1 (relative stereo) [Example 267]
Ask: Sort the compounds on pIC50; start with the lowest figure. Answer format: the labels, in the requested order.
Reply: A, B, C
(A: 7.16, B: 7.70, C: 7.96)

P: CN1CCC(C(=O)N[C@H]2CC[C@@H](NC(=O)c3ccc(-c4cccc(F)c4)nc3)CC2)CC1 [Example 218]
Q: CC(C)(O)[C@@H]1CC[C@H](NC(=O)c2ccc(-c3cccc(F)c3)nc2)C1 [Example 162]
Ask: Parameter metric = pIC50. Return the lower-valued option from P and Q . API: response body contains the label of the selected item.
Reply: P

P: N[C@H]1CCC[C@H](NC(=O)c2ccc(-c3cccc(F)c3)nc2)C1 (relative stereo) [Example 244]
Q: CC(C)(O)C[C@H]1CC[C@H](NC(=O)c2ccc(-c3cccc(F)c3)nc2)CC1 [Example 152]
Ask: Parameter metric = pIC50. Return the lower-valued option from P and Q . API: response body contains the label of the selected item.
Reply: P

I: Cc1ccnn1CC(=O)N[C@H]1CC[C@H](NC(=O)c2ccc(-c3cccc(F)c3)nc2)CC1 [Example 113M]
II: COCC(=O)NC[C@H]1CCC[C@@H](NC(=O)c2ccc(-c3cccc(F)c3)nc2)C1 (relative stereo) [Example 252]
Ask: // max by pIC50 over [ I , II ] API: response body contains the label of the selected item.
Reply: I
